Test: Nuclear factor erythroid 2-related factor 2/antioxidant responsive element (Nrf2/ARE) small molecule agonists: luciferase reporter gene qHTS assay in human keratinocytes (AID 1919969); also: nearly all actives have a fitted effect of over 35% in size
Settings: KeratinoSens HaCaT ARE-luciferase, luminescence, 24 h; series mostly up to 92.4 µM
Inconclusive results are not listed. Calls of active or inactive are those of the source. Calls follow the shape of the full dose curve.
Returns: one label drawn from active, inactive

Illustrative cases are given below, each with its answer.
| compound | assigned.category |
| --- | --- |
| CCc1nn(C2CCCCC2)c2cc(C3(C#N)CCC(C(=O)O)CC3)ccc12 (stereo not drawn) | inactive |
| CC(=O)NC(=O)c1ccccc1O | inactive |
| CCOC(=O)CCC(=O)OCC | inactive |
| Nc1cc(S(=O)(=O)O)ccc1O | inactive |
| CCCCC1=NC2(CCCC2)C(=O)N1Cc1ccc(-c2ccccc2-c2nn[nH]n2)cc1 | inactive |

Input line: Tell me the assay call for C=CCc1ccccc1OCC(O)CNC(C)C (stereo not drawn) please.
Output line: inactive

Input line: Tell me the assay call for CCCCCCCCCC#N please.
Output line: active

Input line: Tell me the assay call for Nc1cccc(S(=O)(=O)O)c1 please.
Output line: inactive

Input line: Tell me the assay call for CCc1cccc(CC)c1N(COC)C(=O)CS(=O)(=O)O please.
Output line: inactive

Attribution: PubChem BioAssay (Tox21)
